Target: hMC4R (Homo sapiens (Human), UniProt P32245)
Sequence (P32245 whole entry): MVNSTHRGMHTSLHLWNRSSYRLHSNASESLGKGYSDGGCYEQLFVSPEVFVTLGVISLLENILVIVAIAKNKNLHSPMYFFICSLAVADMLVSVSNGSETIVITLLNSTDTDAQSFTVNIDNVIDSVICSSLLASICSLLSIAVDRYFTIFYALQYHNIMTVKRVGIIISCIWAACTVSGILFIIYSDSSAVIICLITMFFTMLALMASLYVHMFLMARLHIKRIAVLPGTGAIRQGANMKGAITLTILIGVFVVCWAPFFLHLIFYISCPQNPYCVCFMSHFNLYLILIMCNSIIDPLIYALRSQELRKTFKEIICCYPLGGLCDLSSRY
Experiment: LANCE cAMP assay, hMC4R PAM
Type: cell-based
Settings: HEK293 cells stably expressing the hMC4R; α-MSH at an EC20 dose
Procedure: Analysis of pharmacological properties of compounds was performed using the LANCE cAMP kit (Perkin Elmer). HEK293 cells stably expressing the hMC4R were treated with PAM compounds at doses indicated, then incubated with an Alexa Fluor 647-labeled antibody in stimulation buffer according to manufacturer's instructions for 30 min at RT. […] Plates were then incubated for 30 minutes at RT and read on a Viewlux (Perkin Elmer) using 618 and 671 nm emission filters. […]
reported_endpoint: hMC4R PAM LANCE pEC50 Mean
Kindly provide the number alone.

INSERT INTO measurements (compound, reported_endpoint, quantitative_result) VALUES
  ('COC(=O)c1[nH]c2ccccc2c1NC(=O)CN1CCC(Nc2ccccc2)CC1', 'hMC4R PAM LANCE pEC50 Mean', 5.8);

Task: Fill in the blank: the reported hMC4R PAM LANCE pEC50 Mean of `COC(=O)c1[nH]c2ccc(Br)cc2c1NC(=O)CN1CCC(c2ccccc2)CC1` is ____.
Output: 6.6

Task: Then this compound: `Cc1cccc(N2CCN(CC(=O)Nc3c(C(=O)C4CC4)[nH]c4ccccc34)CC2)c1C`
Output: 6.5

====

target: hMC4R (Homo sapiens (Human)); test: LANCE cAMP assay, hMC4R PAM; format: cell-based; conditions: HEK293 cells stably expressing the hMC4R; α-MSH at an EC20 dose
Items are presented alongside their recorded hMC4R PAM LANCE pEC50 Mean.
Please respond with just the number, no unit label.

Some solved entries appear below for comparison.
INSERT INTO assay_data (compound, target_or_system, quantitative_result) VALUES
  ('COC(=O)c1[nH]c2ccc(Br)cc2c1NC(=O)C(C)N1CCC(Cc2ccccc2)CC1 (stereo not shown)', 'hMC4R (Homo sapiens (Human))', 6.2),
  ('COC(=O)c1[nH]c2ccccc2c1NC(=O)CN1CCN(Cc2ccccc2)C(C)(C)C1', 'hMC4R (Homo sapiens (Human))', 5.6),
  ('CC(=O)c1[nH]c2ccccc2c1NC(=O)C(C)N1CCC(C2CCCC2)CC1 (stereo not shown)', 'hMC4R (Homo sapiens (Human))', 6.4),
  ('O=C(CN1CCC(C2CC2)CC1)Nc1c(C(=O)C2CC2)[nH]c2ccccc12', 'hMC4R (Homo sapiens (Human))', 6),
  ('COC(=O)c1[nH]c2ccccc2c1NC(=O)CN1CCC(C2CCCCC2)CC1', 'hMC4R (Homo sapiens (Human))', 6.7);

Task: So what's the measured hMC4R PAM LANCE pEC50 Mean for this one? `CC(=O)c1[nH]c2ccncc2c1NC(=O)CN1CCC(C2CCCC2)CC1`
Output: 6.6

Task: Would you mind doing `O=C(CN1CCC2(CCCC2)CC1)Nc1c(C(=O)C2CC2)[nH]c2ccncc12` as well?
Output: 6.4

====

target: hMC4R (Homo sapiens (Human)); assay: LANCE cAMP assay, hMC4R PAM; assay type: cell-based; conditions: HEK293 cells stably expressing the hMC4R; α-MSH at an EC20 dose
Readings of hMC4R PAM LANCE pEC50 Mean for the listed compounds
Would you mind answering with just the numeric figure?

Example entries begin here.
INSERT INTO assay_data (compound_structure, reported_endpoint, quantitative_result) VALUES
  ('O=C(CN1CCC(c2ccccc2)CC1)Nc1c(C(=O)C2CCC2)[nH]c2ccccc12', 'hMC4R PAM LANCE pEC50 Mean', 5.9),
  ('COC(=O)c1[nH]c2ccc(Br)cc2c1NC(=O)CN1CCCCC1', 'hMC4R PAM LANCE pEC50 Mean', 6),
  ('CC(=O)c1[nH]c2ccccc2c1NC(=O)CN1CCC(Oc2ccccc2)CC1', 'hMC4R PAM LANCE pEC50 Mean', 5.9),
  ('COC(=O)c1[nH]c2ccccc2c1NC(=O)CN1CCN(c2cccc(C(F)(F)F)c2)CC1', 'hMC4R PAM LANCE pEC50 Mean', 6.3);

Now consider the entry below.
Task: Look at this compound and give its reported hMC4R PAM LANCE pEC50 Mean. `O=C(CN1CCC(c2ccccc2)CC1)Nc1c(C(=O)C2CC2)[nH]c2ccncc12`
Output: 6.5
